target.or.system: UniProtKB Q72874
assay.summary: Compound was tested for the inhibitory activity against HIV-protease
reported.endpoint: Ki (µM)
API: value field is a number in µM; no unit string.

Need Ki, item O=C1N(Cc2cccc(CO)c2)[C@H](Cc2ccccc2)[C@@H](Cc2ccccc2)N1Cc1cccc(CO)c1
15.5

###

target.or.system: Human immunodeficiency virus type 1 protease (Human immunodeficiency virus 1)
assay.summary: Inhibition of HIV-protease
pKi: −log10 of the molar value.
Give T when the value for pKi is at least 6. Give F when it is less.

Here's what some known entries look like.
O=C1N(Cc2cccc(CO)c2)[C@H]([C@@H](O)Cc2ccccc2)[C@@H](CCc2ccccc2)N1Cc1cccc(CO)c1 :: T
O=C1N(Cc2cccc(CO)c2)[C@H](CCc2ccccc2)[C@@H](CCc2ccccc2)N1Cc1cccc(CO)c1 :: T
COC(=O)c1cccc(CN2C(=O)N(Cc3cccc(C(=O)OC)c3)[C@H](CCc3ccccc3)[C@H]2[C@@H](O)Cc2ccccc2)c1 :: T
C=CCN1C(=O)N(CC=C)[C@H]([C@@H](F)Cc2ccccc2)[C@H]1[C@@H](F)Cc1ccccc1 :: F

Please indicate if the recorded pKi for O=C(Oc1cccc(CN2C(=O)N(Cc3cccc(OC(=O)c4ccccc4)c3)[C@H]([C@@H](F)Cc3ccccc3)[C@H]2[C@@H](F)Cc2ccccc2)c1)c1ccccc1 meets or exceeds 6.
T

###

target.or.system: Human immunodeficiency virus type 1 protease (Human immunodeficiency virus 1)
assay.summary: Inhibition of HIV-protease
pKi: −log10 of the molar value.
Label rule, in plain words: pKi of 7 and up is Met, under 7 is Not met.

Consider the following illustrative entries.
COC(=O)c1cccc(CN2C(=O)N(Cc3cccc(C(=O)OC)c3)[C@H](CCc3ccccc3)[C@H]2[C@@H](Br)Cc2ccccc2)c1 :: Not met
O=C1N(Cc2cccc(CO)c2)[C@H](Cc2ccccc2)CC[C@@H](Cc2ccccc2)N1Cc1cccc(CO)c1 :: Not met
O=C1N(CC2CC2)[C@H]([C@@H](F)Cc2ccccc2)[C@@H]([C@@H](F)Cc2ccccc2)N1CC1CC1 :: Not met
COC(=O)c1cccc(CN2C(=O)N(Cc3cccc(C(=O)OC)c3)[C@H](CCc3ccccc3)[C@H]2CCc2ccccc2)c1 :: Not met
N=C(NO)c1cccc(CN2C(=O)N(Cc3cccc(C(=N)NO)c3)[C@H](CCc3ccccc3)[C@H]2CCc2ccccc2)c1 :: Met

Answer whether pKi of O=C1N(Cc2cccc(O)c2)[C@H]([C@@H](F)Cc2ccccc2)[C@@H]([C@@H](F)Cc2ccccc2)N1Cc1cccc(O)c1 is greater than or equal to 7.
Not met
